Data provenance: paper PMC10979747

- study_system: TNIK (Homo sapiens)
- experimental_details: ADP-Glo kinase inhibition assay
- Format: biochemical
- Set-up: Biotinylated TNIK (kinase domain, amino acids 1-314;); biotin (biotinylated protein); purchased Carna Biosciences (Kobe, Japan)
- condition_context: 0.5 nM TNIK, 25 µM ATP, 15 µM MSTtide; 4-parameter logistic fit; read-out: ADP-Glo IC50 against TNIK
Numbered stars: 1 amine (or outer) side, 2 acyl side, 3 side chain; on linkers, the order of the positions; unused ones are H or OH. Bridge positions count the residues as written; N and C are the ends. Square brackets hold non-standard residues; d marks the D form. Peptide text beside a SMILES is read from it. X1 = C=C(N[*:2])c1nc(-c2nc(-c3nc(C(=O)OC)cs3)ccc2C(=O)[*:1])cs1; NMePhe(4-NO2) = CN[C@@H](Cc1ccc([N+](=O)[O-])cc1)C(=O)O; Tic(7-OH) = O=C(O)[C@@H]1Cc2ccc(O)cc2CN1; X2 = O=C(c1csc([C@H](CO)N[*:1])n1)[*:2]; NMeA = CN[C@@H](C)C(=O)O; Dhb = C/C=C(\N)C(=O)O; Dha = C=C(N)C(=O)O; Sar = CNCC(=O)O
Consider the following molecules; for each one, report its pIC50.
One number for each entry, as −log10 of the molar value.

C=C1NC(=O)[C@H](C)N(C)C(=O)[C@H](CCCNC(=N)N)NC(=O)CN(C)C(=O)/C(=C/C)NC(=O)[C@H](CCCNC(=N)N)NC(=O)[C@H](CC(C)C)NC(=O)[C@H](Cc2c[nH]c3ccccc23)NC(=O)[C@H](Cc2c[nH]c3ccccc23)NC(=O)c2ccc(-c3nc(C(=O)OC)cs3)nc2-c2csc(n2)C(=C)NC(=O)CNC(=O)/C(=C/C)NC(=O)[C@H](Cc2ccc([N+](=O)[O-])cc2)N(C)C(=O)[C@H]([C@@H](C)O)NC1=O [hTP8] (WWLR[Dhb][Sar]R[NMeA][Dha]T[NMePhe(4-NO2)][Dhb]G; linker N-C via X1) | 5.93

// below: pIC50 requested for another molecule
Need pIC50, item C=C1NC(=O)CN(C)C(=O)[C@H](CC(N)=O)NC(=O)c2csc(n2)[C@H](CO)NC(=O)[C@H](Cc2c[nH]c3ccccc23)NC(=O)[C@H](Cc2c[nH]c3ccccc23)NC(=O)c2ccc(-c3nc(C(=O)OC)cs3)nc2-c2csc(n2)C(=C)NC(=O)[C@H](C)NC(=O)/C(=C/C)NC(=O)[C@@H]2Cc3ccc(O)cc3CN2C(=O)[C@H](Cc2ccc([N+](=O)[O-])cc2)N(C)C(=O)CN(C)C(=O)C(=C)NC1=O [wTP12] (WW[X2]N[Sar][Dha][Dha][Sar][NMePhe(4-NO2)][Tic(7-OH)][Dhb]A; linker N-C via X1)
5.90

###

Consider the following compounds; for each one, report its kon.
- study_system: TNIK (Homo sapiens, UniProt Q9UKE5)
- Sequence (Q9UKE5 1-314): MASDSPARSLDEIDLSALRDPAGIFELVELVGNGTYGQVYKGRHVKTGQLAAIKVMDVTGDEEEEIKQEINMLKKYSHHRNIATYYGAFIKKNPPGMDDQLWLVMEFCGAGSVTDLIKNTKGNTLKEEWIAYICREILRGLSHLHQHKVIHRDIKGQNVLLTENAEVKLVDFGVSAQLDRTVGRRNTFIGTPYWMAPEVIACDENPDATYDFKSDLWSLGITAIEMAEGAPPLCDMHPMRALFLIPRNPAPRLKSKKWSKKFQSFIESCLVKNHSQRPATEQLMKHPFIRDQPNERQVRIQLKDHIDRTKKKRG
- experimental_details: Surface plasmon resonance, binding of thiopeptides to immobilized biotinylated TNIK (single-cycle, then multicycle kinetics)
- Parameters: Biotinylated TNIK (kinase domain, amino acids 1-314;); biotin (biotinylated protein); purchased Carna Biosciences (Kobe, Japan)
- condition_context: SPR kinetic data, binding to immobilized TNIK
Numbered stars: 1 amine (or outer) side, 2 acyl side, 3 side chain; on linkers, the order of the positions; unused ones are H or OH. Bridge positions count the residues as written; N and C are the ends. Square brackets hold non-standard residues; d marks the D form. Peptide text beside a SMILES is read from it. X1 = C=C(N[*:2])c1nc(-c2nc(-c3nc(C(=O)OC)cs3)ccc2C(=O)[*:1])cs1; NMePhe(4-NO2) = CN[C@@H](Cc1ccc([N+](=O)[O-])cc1)C(=O)O; Tic(7-OH) = O=C(O)[C@@H]1Cc2ccc(O)cc2CN1; Aad = N[C@@H](CCCC(=O)O)C(=O)O; Dhb = C/C=C(\N)C(=O)O; Dha = C=C(N)C(=O)O; Sar = CNCC(=O)O
Give bare numbers, in M⁻¹ s⁻¹.

C=C1NC(=O)[C@H](Cc2ccc([N+](=O)[O-])cc2)N(C)C(=O)[C@H]([C@@H](C)O)NC(=O)C(=C)NC(=O)C(=C)NC(=O)[C@@H]2Cc3ccc(O)cc3CN2C(=O)CN(C)C(=O)C(=C)NC(=O)CN(C)C(=O)[C@H](CCCC(N)=O)NC(=O)[C@H](Cc2c[nH]c3ccccc23)NC(=O)[C@H](Cc2c[nH]c3ccccc23)NC(=O)c2ccc(-c3nc(C(=O)OC)cs3)nc2-c2csc(n2)C(=C)NC(=O)CNC1=O [wTP3] (WW[Aad](NH2)[Sar][Dha][Sar][Tic(7-OH)][Dha][Dha]T[NMePhe(4-NO2)][Dha]G; linker N-C via X1) | 1.37e+06

// below: kon requested for another compound
Need kon, item C=C1NC(=O)[C@@H]2Cc3ccc(O)cc3CN2C(=O)CN(C)C(=O)/C(=C/C)NC(=O)CN(C)C(=O)[C@H](CCCC(N)=O)NC(=O)[C@H](Cc2c[nH]c3ccccc23)NC(=O)[C@H](Cc2c[nH]c3ccccc23)NC(=O)c2ccc(-c3nc(C(=O)OC)cs3)nc2-c2csc(n2)C(=C)NC(=O)CNC(=O)/C(=C/C)NC(=O)[C@H](Cc2ccc([N+](=O)[O-])cc2)N(C)C(=O)[C@H]([C@@H](C)O)NC(=O)C(=C)NC1=O [wTP4] (WW[Aad](NH2)[Sar][Dhb][Sar][Tic(7-OH)][Dha][Dha]T[NMePhe(4-NO2)][Dhb]G; linker N-C via X1)
42500

###

Consider the following compounds; for each one, report its Kd.
- study_system: TNIK (Homo sapiens, UniProt Q9UKE5)
- experimental_details: Surface plasmon resonance, binding of thiopeptides to immobilized biotinylated TNIK (single-cycle, then multicycle kinetics)
- Parameters: Biotinylated TNIK (kinase domain, amino acids 1-314;); biotin (biotinylated protein); purchased Carna Biosciences (Kobe, Japan)
- condition_context: SPR kinetic data, binding to immobilized TNIK; read-out: KD
- Experimental: 2.8. Surface plasmon resonance In the initial experiment, binding affinities between the thiopeptides and TNIK were measured with a Biacore T200 instrument (GE Healthcare) at 25 °C. […] was repeated in triplicate on a Biacore 8K instrument (GE Healthcare) using a multi cycle kinetics format. […] Kinetic parameters and affinities of the interaction were determined assuming the standard 1:1 binding model using the Biacore software (GE Healthcare). […]
Numbered stars: 1 amine (or outer) side, 2 acyl side, 3 side chain; on linkers, the order of the positions; unused ones are H or OH. Bridge positions count the residues as written; N and C are the ends. Square brackets hold non-standard residues; d marks the D form. Peptide text beside a SMILES is read from it. X1 = C=C(N[*:2])c1nc(-c2nc(-c3nc(C(=O)OC)cs3)ccc2C(=O)[*:1])cs1; NMePhe(4-NO2) = CN[C@@H](Cc1ccc([N+](=O)[O-])cc1)C(=O)O; Tic(7-OH) = O=C(O)[C@@H]1Cc2ccc(O)cc2CN1; X2 = O=C(c1csc([C@H](CO)N[*:1])n1)[*:2]; Aad = N[C@@H](CCCC(=O)O)C(=O)O; NMeA = CN[C@@H](C)C(=O)O; Dhb = C/C=C(\N)C(=O)O; Dha = C=C(N)C(=O)O; Sar = CNCC(=O)O
Numbers only, in nM.

Example entries and their recorded answers appear below.
C=C1NC(=O)[C@@H]2Cc3ccc(O)cc3CN2C(=O)CN(C)C(=O)/C(=C/C)NC(=O)CN(C)C(=O)[C@H](CCCC(N)=O)NC(=O)[C@H](Cc2c[nH]c3ccccc23)NC(=O)[C@H](Cc2c[nH]c3ccccc23)NC(=O)c2ccc(-c3nc(C(=O)OC)cs3)nc2-c2csc(n2)C(=C)NC(=O)CNC(=O)/C(=C/C)NC(=O)[C@H](Cc2ccc([N+](=O)[O-])cc2)N(C)C(=O)[C@H]([C@@H](C)O)NC(=O)C(=C)NC1=O [wTP4] (WW[Aad](NH2)[Sar][Dhb][Sar][Tic(7-OH)][Dha][Dha]T[NMePhe(4-NO2)][Dhb]G; linker N-C via X1) | 10.2
C=C1NC(=O)[C@@H]2Cc3ccc(O)cc3CN2C(=O)[C@H](CCCNC(=N)N)NC(=O)[C@H](CC(C)C)NC(=O)[C@H](Cc2ccc([N+](=O)[O-])cc2)N(C)C(=O)[C@H](CC(N)=O)NC(=O)[C@H](CC(C)C)NC(=O)[C@H](CCCNC(=N)N)NC(=O)[C@H](CCCC(N)=O)NC(=O)[C@H](C)NC(=O)[C@H](Cc2c[nH]c3ccccc23)NC(=O)c2ccc(-c3nc(C(=O)OC)cs3)nc2-c2csc(n2)C(=C)NC(=O)CNC1=O [hTP13] (WA[Aad](NH2)RLN[NMePhe(4-NO2)]LR[Tic(7-OH)][Dha]G; linker N-C via X1) | 82
C=C1NC(=O)[C@H](CC(C)C)NC(=O)[C@H](CC(N)=O)NC(=O)[C@H](CO)NC(=O)[C@H](CCCNC(=N)N)NC(=O)[C@H](CCCNC(=N)N)NC(=O)CN(C)C(=O)[C@H](C)N(C)C(=O)[C@H](CC(C)C)NC(=O)[C@H](CCCNC(=N)N)NC(=O)[C@@H]2CCCN2C(=O)[C@@H]2Cc3ccc(O)cc3CN2C(=O)[C@H]([C@@H](C)O)NC(=O)[C@H](Cc2c[nH]c3ccccc23)NC(=O)c2ccc(-c3nc(C(=O)OC)cs3)nc2-c2csc1n2 [hTP15] (WT[Tic(7-OH)]PRL[NMeA][Sar]RRSNL; linker N-C via X1) | 4.5
C=C1NC(=O)CN(C)C(=O)[C@H](CC(N)=O)NC(=O)c2csc(n2)[C@H](CO)NC(=O)[C@H](Cc2c[nH]c3ccccc23)NC(=O)[C@H](Cc2c[nH]c3ccccc23)NC(=O)c2ccc(-c3nc(C(=O)OC)cs3)nc2-c2csc(n2)C(=C)NC(=O)[C@H](C)NC(=O)/C(=C/C)NC(=O)[C@@H]2Cc3ccc(O)cc3CN2C(=O)[C@H](Cc2ccc([N+](=O)[O-])cc2)N(C)C(=O)CN(C)C(=O)C(=C)NC1=O [wTP12] (WW[X2]N[Sar][Dha][Dha][Sar][NMePhe(4-NO2)][Tic(7-OH)][Dhb]A; linker N-C via X1) | 194

// below: Kd requested for another compound
# get_value(readout= Kd, system= TNIK (Homo sapiens, UniProt Q9UKE5)) for C=C1NC(=O)[C@H](Cc2ccc([N+](=O)[O-])cc2)N(C)C(=O)[C@H]([C@@H](C)O)NC(=O)C(=C)NC(=O)C(=C)NC(=O)[C@@H]2Cc3ccc(O)cc3CN2C(=O)CN(C)C(=O)C(=C)NC(=O)CN(C)C(=O)[C@H](CCCC(N)=O)NC(=O)[C@H](Cc2c[nH]c3ccccc23)NC(=O)[C@H](Cc2c[nH]c3ccccc23)NC(=O)c2ccc(-c3nc(C(=O)OC)cs3)nc2-c2csc(n2)C(=C)NC(=O)CNC1=O [wTP3] (WW[Aad](NH2)[Sar][Dha][Sar][Tic(7-OH)][Dha][Dha]T[NMePhe(4-NO2)][Dha]G; linker N-C via X1)
4.2
